Test: Lipid nanoparticle size and polydispersity index by dynamic light scattering (Malvern Zetasizer)
Assay type: physicochemical
Conditions: hEPO mRNA LNP, Process A, Cationic Lipid:DMG-PEG2000:Cholesterol:DOPE 40:1.5:28.5:30 mol %, N/P 4
Experimental Readout: Polydispersity Index (PDI)
The response must contain the number and no unit.

The cases that follow already have their Polydispersity Index (PDI) on record.
>  <Compound>
CCCCCC/C=C\COC(=O)CCCCCC(O)CN(CCCC(=O)O[C@@H]1CO[C@H]2[C@@H]1OC[C@@H]2SC(=O)CCCN(CC(O)CCCCCCCCCC)CC(O)CCCCCCCCCC)CC(O)CCCCCC(=O)OC/C=C\CCCCCC (stereo partly drawn)

>  <Experimental Readout>
Polydispersity Index (PDI)

>  <Assay Value>
0.1

$$$$
>  <Compound>
CCCCCCCCCCC(O)CN(CCCC(=O)O[C@H]1CO[C@H]2[C@@H]1OC[C@H]2OC(=O)CCCN(CC(O)CCCCCCCCCC)CC(O)CCCCCCCCCC)CC(O)CCCCCCCCCC (stereo in doubt) [Compound 3]

>  <Experimental Readout>
Polydispersity Index (PDI)

>  <Assay Value>
0.11

$$$$

Returns the measured Polydispersity Index (PDI) for the input compound. Input: CCCCCCCCCCC(O)CN(CCCC(=O)O[C@H]1CO[C@H]2[C@@H]1OC[C@H]2OC(=O)CCCN(CC(O)CCCCCCCCCC)CC(O)CCCCCCCCCC)CC(O)CCCCCCCCCC (stereo partly drawn) [Compound 29] 0.13

All figures here come from patent US20260224486A1.
